Provenance of the data: paper PMC5615911

Assay: In vivo metabolism of S3643, single oral dose 100 mg/kg bw
Parameters: species or system Sprague-Dawley rats
Details: both, Sprague-Dawley, rat, plasma, oral, 100 mg/kg bw
METRIC: concentration at 1 h (µg/mL)
# value in µg/mL; strip the unit string

Please give the measured concentration at 1 h for this compound: `COc1cccc(-c2n[nH]c(SCc3ccccn3)n2)c1OC`
55.9

---

Assay: In vivo metabolism of S3643, single oral dose 100 mg/kg bw
Parameters: species or system Sprague-Dawley rats
Settings: both, Sprague-Dawley, rat, plasma, oral, 100 mg/kg bw
METRIC: concentration at 24 h (ng/mL)
# value in ng/mL; strip the unit string

Please give the measured concentration at 24 h for this molecule: COc1cccc(-c2n[nH]c(SCc3ccccn3)n2)c1OC [S3643]
63
